Biological target: T1, E. coli β clamp (β subunit of DNA polymerase III, dnaN gene product) (E. coli, UniProt P0A988 1-366)
T1 construct: Homodimeric ring; N-tagged protein expressed in BL21 E. coli and purified on Ni-NTA and MonoQ; also called β ring; β protein; not shown: N-terminal tag from the pET15b plasmid
T1 sequence (P0A988 whole entry): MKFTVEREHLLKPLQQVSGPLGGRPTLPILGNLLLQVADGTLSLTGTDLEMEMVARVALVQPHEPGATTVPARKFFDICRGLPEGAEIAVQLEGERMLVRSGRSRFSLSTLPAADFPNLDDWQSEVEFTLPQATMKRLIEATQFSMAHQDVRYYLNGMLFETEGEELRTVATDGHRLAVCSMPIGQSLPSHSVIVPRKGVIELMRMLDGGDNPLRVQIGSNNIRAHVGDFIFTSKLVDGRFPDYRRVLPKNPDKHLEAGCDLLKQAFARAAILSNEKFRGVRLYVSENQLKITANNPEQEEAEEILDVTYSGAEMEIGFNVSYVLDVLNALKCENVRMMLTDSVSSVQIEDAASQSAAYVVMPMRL
Assay: SPR competition: peptide with β ring injected on immobilized P1
pIC50: −log10 of the molar value. Square brackets hold non-standard residues; d marks the D form. Phe(3,4-Cl2) = N[C@@H](Cc1ccc(Cl)c(Cl)c1)C(=O)O; Phe(4-Br) = N[C@@H](Cc1ccc(Br)cc1)C(=O)O; Phe(4-Cl) = N[C@@H](Cc1ccc(Cl)cc1)C(=O)O; Phe(4-Me) = Cc1ccc(C[C@H](N)C(=O)O)cc1; hCha = N[C@@H](CCC1CCCCC1)C(=O)O; Cha = N[C@@H](CC1CCCCC1)C(=O)O
// values below are reported pIC50

BINDER | pIC50
H-RQLVLGL-OH (also called RQLVLGL; natural Cter heptamer of E. coli DNA polymerase IV) [P1, H-Arg-Gln-Leu-Val-Leu-Gly-Leu-OH] | 5.05
Ac-Q[Cha]DL[Phe(4-Cl)]-OH (SMILES CC(=O)N[C@@H](CCC(N)=O)C(=O)N[C@@H](CC1CCCCC1)C(=O)N[C@@H](CC(=O)O)C(=O)N[C@@H](CC(C)C)C(=O)N[C@@H](Cc1ccc(Cl)cc1)C(=O)O, X stands for Cha; the substituted phenylalanine is written F; also called Ac-Q Cha DL pClF) [P12, Ac-Gln-Cha-Asp-Leu-pClPhe-OH] | 6.80
Ac-Q[Cha]DL[Phe(3,4-Cl2)]-OH (SMILES CC(=O)N[C@@H](CCC(N)=O)C(=O)N[C@@H](CC1CCCCC1)C(=O)N[C@@H](CC(=O)O)C(=O)N[C@@H](CC(C)C)C(=O)N[C@@H](Cc1ccc(Cl)c(Cl)c1)C(=O)O, X stands for Cha; the substituted phenylalanine is written F; also called Ac-Q Cha DL diClF; Bu29) [P14, Ac-Gln-Cha-Asp-Leu-(3,4-di-Cl)Phe-OH] | 7.11
Ac-Q[Cha]DLF-OH (SMILES CC(=O)N[C@@H](CCC(N)=O)C(=O)N[C@@H](CC1CCCCC1)C(=O)N[C@@H](CC(=O)O)C(=O)N[C@@H](CC(C)C)C(=O)N[C@@H](Cc1ccccc1)C(=O)O, X stands for the non-natural residue; also called Ac Q ChaDLF; AcQChaDLF) [P7, Ac-Gln-Cha-Asp-Leu-Phe-OH] | 6.77
Ac-Q[Cha]DL[Phe(4-Me)]-OH (SMILES CC(=O)N[C@@H](CCC(N)=O)C(=O)N[C@@H](CC1CCCCC1)C(=O)N[C@@H](CC(=O)O)C(=O)N[C@@H](CC(C)C)C(=O)N[C@@H](Cc1ccc(C)cc1)C(=O)O, X stands for Cha; the substituted phenylalanine is written F; also called Ac-Q Cha DL pMeF) [P11, Ac-Gln-Cha-Asp-Leu-pMePhe-OH] | 6.59
Ac-Q[hCha]DLF-OH (SMILES CC(=O)N[C@@H](CCC(N)=O)C(=O)N[C@@H](CCC1CCCCC1)C(=O)N[C@@H](CC(=O)O)C(=O)N[C@@H](CC(C)C)C(=O)N[C@@H](Cc1ccccc1)C(=O)O, X stands for the non-natural residue; also called Ac Q hCha DLF) [P8, Ac-Gln-hCha-Asp-Leu-Phe-OH] | 4.08
Ac-Q[Cha]DL[Phe(4-Br)]-OH (SMILES CC(=O)N[C@@H](CCC(N)=O)C(=O)N[C@@H](CC1CCCCC1)C(=O)N[C@@H](CC(=O)O)C(=O)N[C@@H](CC(C)C)C(=O)N[C@@H](Cc1ccc(Br)cc1)C(=O)O, X stands for Cha; the substituted phenylalanine is written F; also called Ac-Q Cha DL pBrF) [P13, Ac-Gln-Cha-Asp-Leu-pBrPhe-OH] | 7.02
